system: Recombinant human PI3Kγ (full length human PI3K p110γ) (Homo sapiens)
Construct: full length human PI3K p110γ fused with a His6-tag at the C-terminus; His6 (C); purchased ALEXIS BIOCHEMICALS #201-055-C010; host or cells: S. frugiperda 9 insect cells
Sequence (P48736 whole entry, the tested form may be a part): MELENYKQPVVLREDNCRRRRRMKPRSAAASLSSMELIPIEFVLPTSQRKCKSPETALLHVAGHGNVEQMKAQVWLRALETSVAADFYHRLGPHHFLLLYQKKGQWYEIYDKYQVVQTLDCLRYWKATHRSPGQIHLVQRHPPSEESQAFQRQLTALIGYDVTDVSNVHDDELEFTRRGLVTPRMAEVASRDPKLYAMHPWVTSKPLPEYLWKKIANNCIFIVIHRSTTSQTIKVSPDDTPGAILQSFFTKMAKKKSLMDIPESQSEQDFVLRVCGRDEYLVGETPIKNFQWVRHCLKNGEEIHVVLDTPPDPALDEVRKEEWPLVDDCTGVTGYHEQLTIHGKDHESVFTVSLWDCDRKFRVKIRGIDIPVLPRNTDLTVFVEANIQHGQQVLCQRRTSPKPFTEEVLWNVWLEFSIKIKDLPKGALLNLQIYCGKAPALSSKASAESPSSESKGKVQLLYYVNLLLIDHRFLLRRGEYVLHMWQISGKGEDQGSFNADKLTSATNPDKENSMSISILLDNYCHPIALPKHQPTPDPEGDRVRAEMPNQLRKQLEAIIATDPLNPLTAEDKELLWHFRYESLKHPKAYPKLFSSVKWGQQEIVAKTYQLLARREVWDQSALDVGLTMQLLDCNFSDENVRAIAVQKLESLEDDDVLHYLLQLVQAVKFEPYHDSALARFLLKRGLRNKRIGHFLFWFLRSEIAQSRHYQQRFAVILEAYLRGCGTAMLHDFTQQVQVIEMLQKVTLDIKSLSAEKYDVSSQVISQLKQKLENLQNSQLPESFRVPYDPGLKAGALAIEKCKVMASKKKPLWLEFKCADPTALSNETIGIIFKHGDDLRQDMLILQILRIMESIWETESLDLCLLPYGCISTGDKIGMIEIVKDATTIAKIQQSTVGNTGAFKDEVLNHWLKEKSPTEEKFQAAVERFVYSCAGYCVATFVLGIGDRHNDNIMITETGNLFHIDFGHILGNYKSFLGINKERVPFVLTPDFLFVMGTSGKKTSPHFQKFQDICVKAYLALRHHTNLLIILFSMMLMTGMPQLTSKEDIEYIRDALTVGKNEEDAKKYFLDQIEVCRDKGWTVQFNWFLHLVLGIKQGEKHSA
assayProcedure: Kinase assay of PI3Kγ (solid-phase lipid kinase assay)
Assay type: biochemical
testConditions: Table 1, isozyme not given; read-out: in vitro
pIC50: −log10 of the molar value.
Entries and their pIC50

// worked examples, pIC50 included
Q: Returns the measured pIC50 for the input compound. Input: O=C(NCCc1ccc2c(n1)N=C(/C=C(\O)c1cccnc1)N1CCN=C21)N1CCOCC1
Ans: 5.70 to 6.30

Q: Which value of pIC50 has been reported for CC(=O)Nc1ccc(/C(O)=C/C2=Nc3cc(N4CCN(C)CC4)ccc3C3=NCCN23)cn1 in the records?
Ans: 6.30 to 7.00

Next:
Q: What does the data say about its pIC50? Entry: COc1c(OCCCC(=O)N2CCOCC2)ccc2c1N=C(/C=C(\O)c1cccnc1)N1CCN=C21.Cl
Ans: > 7.00

Q: State the recorded pIC50 for this entry: CC(=O)Nc1ccc(/C(O)=C/C2=Nc3cc(CN4CCOCC4)ccc3C3=NCCN23)cn1
Ans: 6.30 to 7.00

Q: So what does the record say about pIC50 for O/C(=C\C1=Nc2ccccc2C2=NCCN12)c1ccccn1 ?
Ans: 5.70 to 6.30

Q: Entry OCCOc1cccc2c1N=C(/C=C(\O)c1cccnc1)N1CCN=C21 : reported pIC50 = ?
Ans: 6.30 to 7.00

# credit: patent US7511041B2
